Test: luciferase-based ADP detection interference – biochemical, luminescence, cell-free, homogeneous, artefact control for GSK-3a inhibitor project, dose response (AID 463205);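 note: kinase-free counter-screen against the ADP-Glo detection reagents only; potency is for inhibitors that reduce the luminescence signal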
Details: Cell-free ADP-Glo detection reagents, 5 uM ADP
The whole screen tested about 2,400 compounds, of which about 20 (0.8%) were called active.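 Rule for the calls: active = AC50 no more than ten times the highest tested concentration, or full inhibition at every dose giving a flat fit (cut at about 30 µM in these data); inconclusive = flat fit with activity between 30% and 70%, or poor-quality invalid fit; inactive = AC50 more than ten times the top tested dose.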 The sample holds actives, similar compounds and a random draw of the others, so the mix is not that of the screen.
Give one outcome, nothing more. List: 1 (yes) for active, 0 (no) for inactive

Below are worked cases with known answers.
1. COc1ccc(NC(=O)CN(C)C2CCCCC2)c([N+](=O)[O-])c1 ... 0 (no)
2. CC(C)(C)C(=O)c1cnc(Nc2ccccc2Cl)s1 ... 0 (no)
3. CCCNC(=O)NC(C(=O)OC)C12CC3CC(CC(C3)C1)C2 (stereo unspecified) ... 0 (no)

Which outcome was assigned to NC(=O)c1ccsc1NC(=O)C1CC1 in this test?
0 (no)

Would you mind telling me which call this test gave Cc1ccc2c(c1)COc1c3ccc(C(=O)N4CCOCC4)cc3nn1-2 ?
0 (no)

Please state the recorded outcome for this molecule: COc1ccc(-c2nnc(SCC(=O)Nc3ccccc3OC)o2)cc1
0 (no)

Could you check what this test reported for CC(C)c1c(C(=O)N/N=C/c2ccncc2)nnn1-c1nonc1N ?
0 (no)

Per the assay record, what outcome was assigned to Cc1cccc(/C(N)=N/OC(=O)c2ccc3c(c2)OCO3)c1 ?
1 (yes)

What call does the record list for Cc1nc(NCC2CCCO2)nc2c1C(=O)CC(C)(C)C2 (stereo unspecified) ?
0 (no)

Fill in: this test's call for CCC(C)Nc1nc(N)c([N+](=O)[O-])c(N2CCCCCC2)n1 (stereo unspecified) is ___
0 (no)

Lab log entry: Fc1ccc(Nc2ncnc3ccccc23)cc1 — outcome as called in the assay?
0 (no)

Entry Clc1cccc(/C=N/Nc2ncnc3ccccc23)c1 : call = ?
0 (no)
